assay: Oral bioavailability in Han Wistar rat at 50 umol/kg; format: ADME, organism-based; settings: in vivo
measuredMetric: bioavailability

cpdSmiles | experimentalResult
OC1(c2cccnc2)CCN(c2ccc3nnc(C(F)(F)F)n3n2)CC1 | > 75%

* * *

experiment: Volume of distribution at steady state in Han Wistar rat at 20 umol/kg, iv and 50 umol/kg, po; assay type: ADME, organism-based; conditions: in vivo, read-out: Vdss
measuredMetric: Vd

cpdSmiles | measuredMetric | experimentalResult
OC1(c2cccnc2)CCN(c2ccc3nnc(C(F)(F)F)n3n2)CC1 | Vd | 5.7 L/kg

* * *

test: Clearance in Han Wistar rat at 4 umol/kg, iv and 5 umol/kg, po; format: ADME, organism-based; conditions: in vivo

molecule | clearance / mL/min/kg
CC(=O)N1CCN(CCOc2ccc(C3CCN(C4=Nn5c(nnc5C(F)(F)F)CC4)CC3)cc2)CC1 [AZD3514] | 6.6

* * *

experiment: Fraction unbound in Han Wistar rat plasma by equilibrium dialysis method; assay type: ADME, cell-free
# fraction unbound per record follows

molecule | fraction unbound
CC(=O)N1CCN(CCOc2ccc(C3CCN(c4ccc5nnc(C(F)(F)F)n5n4)CC3)cc2)CC1 | 0.012
OC1(c2cccnc2)CCN(c2ccc3nnc(C(F)(F)F)n3n2)CC1 | 0.34
OC1(c2ccc(F)cc2)CCN(c2ccc3nnc(C(F)(F)F)n3n2)CC1 | 0.036
CC(=O)N1CCN(CCOc2ccc(C3(O)CCN(c4ccc5nnc(C(F)(F)F)n5n4)CC3)cc2)CC1 | 0.064
Fc1cccc(CN2CCN(c3ccc4nnc(C(F)(F)F)n4n3)CC2)c1F | 0.018
CC(=O)N1CCN(CCOc2ccc(C3CCN(C4=Nn5c(nnc5C(F)(F)F)CC4)CC3)cc2)CC1 [AZD3514] | 0.094
Fc1ccc(CN2CCN(C3=Nn4c(nnc4C(F)(F)F)CC3)CC2)cc1 | 0.13
N#Cc1ccc(CN2CCN(c3ccc4nnc(C(F)(F)F)n4n3)CC2)cc1 | 0.092
Fc1ccc(CN2CCN(c3ccc4nnc(C(F)(F)F)n4n3)CC2)cc1 | 0.034
Cn1nccc1CCOc1ccc(C2CCN(c3ccc4nnc(C(F)(F)F)n4n3)CC2)cc1 | 0.0021

* * *

experiment: physchem; settings: phosphate buffer
Classify as follows. Reported solubility thermodynamic at 24 h greater than or equal to 200 µM: fulfilled. Reported solubility thermodynamic at 24 h below: not fulfilled.

compound | labelValue
CC(=O)N1CCN(CCOc2ccc(C3(O)CCN(c4ccc5nnc(C(F)(F)F)n5n4)CC3)cc2)CC1 | not fulfilled
Fc1ccc(CN2CCN(C3=Nn4c(nnc4C(F)(F)F)CC3)CC2)cc1 | fulfilled
OC1(c2cccnc2)CCN(c2ccc3nnc(C(F)(F)F)n3n2)CC1 | not fulfilled
CC(=O)N1CCN(CCOc2ccc(C3CCN(C4=Nn5c(nnc5C(F)(F)F)CC4)CC3)cc2)CC1 [AZD3514] | fulfilled
Cn1nccc1CCOc1ccc(C2CCN(c3ccc4nnc(C(F)(F)F)n4n3)CC2)cc1 | not fulfilled
N#Cc1ccc(CN2CCN(c3ccc4nnc(C(F)(F)F)n4n3)CC2)cc1 | not fulfilled

* * *

test: Clearance in Han Wistar rat at 3 umol/kg, iv and 10 umol/kg, po; type: ADME, organism-based; conditions: in vivo
measuredMetric: clearance

cpdSmiles | measuredMetric | experimentalResult
Cn1nccc1CCOc1ccc(C2CCN(c3ccc4nnc(C(F)(F)F)n4n3)CC2)cc1 | clearance | 22 mL/min/kg
